Experiment: Glucuronidation in human hepatic microsomes with UDPGA
Details: Table 1 diphenylureas; human hepatic microsomes ca. 0.5 mg/mL protein, 0.5 uM compound, UDPGA 4 mM, pH 7.4, 37° C.
Property: CLint (mL/min/g liver) human; scope: individual compounds

In the examples that follow, each entry is paired with its recorded CLint (mL/min/g liver) human.
> print(dat)
                                   compound              result
1  CCCC(C)c1c(C#N)ccc(NC(=O)Nc2ccccc2Br)c1O (stereo not drawn)  2.4 mL/min/g liver
2  NS(=O)(=O)Cc1c(Cl)ccc(NC(=O)Nc2cccc(Cl)c2Cl)c1O   11 mL/min/g liver
3   CC(C)Cc1c(C#N)ccc(NC(=O)Nc2ccccc2Br)c1O  7.6 mL/min/g liver

Next item in the queue.
According to the records, this compound CN(C)S(=O)(=O)c1c(Cl)ccc(NC(=O)Nc2ccccc2Br)c1O displays CLint (mL/min/g liver) human of <0.6 mL/min/g liver

====

Test: Glucuronidation in rat hepatic microsomes with UDPGA
Settings: Table 1 diphenylureas; rat hepatic microsomes ca. 0.5 mg/mL protein, 0.5 uM compound, UDPGA 4 mM, pH 7.4, 37° C.
This section presents molecules with their documented Clint (mL/min/g liver) rat values.

# Clint (mL/min/g liver) rat of CS(=O)(=O)c1c(Cl)ccc(NC(=O)Nc2cccc(Cl)c2Cl)c1O [Table 1 Entry 8] = <0.6 mL/min/g liver

====

Assay: Glucuronidation in human hepatic microsomes with UDPGA
Conditions: Table 1 diphenylureas; human hepatic microsomes ca. 0.5 mg/mL protein, 0.5 uM compound, UDPGA 4 mM, pH 7.4, 37° C.
test_readout: CLint (mL/min/g liver) human
Your answer is read as mL/min/g liver, so omit the unit and give the number.

Please review the following examples before continuing.
> print(dat)
                                   compound  number
1  O=C(Nc1ccc(Cl)c(C(=O)Nc2ccccc2)c1O)Nc1cccc(Cl)c1Cl      11
2  CCC(C)c1c(C#N)ccc(NC(=O)Nc2ccccc2Br)c1O (centres unmarked)     2.8
3    NC(=O)c1c(Cl)ccc(NC(=O)Nc2ccccc2Br)c1O    15.4
4  O=C(Nc1ccc(Cl)c(C(=O)N2CCOCC2)c1O)Nc1cccc(Cl)c1Cl      21

CLint (mL/min/g liver) human for C[S+]([O-])c1c(Cl)ccc(NC(=O)Nc2cccc(Cl)c2Cl)c1O (centres unmarked) is 4.1

Item: CCCc1c(C#N)ccc(NC(=O)Nc2ccccc2Br)c1O | CLint (mL/min/g liver) human: 11.3

====

In this section, each of the compounds is paired with its reported Clint (mL/min/g liver) rat.
Assay: Glucuronidation in rat hepatic microsomes with UDPGA
Settings: Table 1 diphenylureas; rat hepatic microsomes ca. 0.5 mg/mL protein, 0.5 uM compound, UDPGA 4 mM, pH 7.4, 37° C.
Note: unit mL/min/g liver is implicit; provide only the numeric part.

> print(dat)
                                   compound  number
1  O=C(Nc1ccc(Cl)c(C(=O)Nc2ccccc2)c1O)Nc1cccc(Cl)c1Cl     9.3
2  C[S+]([O-])c1c(Cl)ccc(NC(=O)Nc2cccc(Cl)c2Cl)c1O (stereo not shown)     2.6

The compound identified as O=C(Nc1ccc(Cl)c(C(=O)N2CCOCC2)c1O)Nc1cccc(Cl)c1Cl registered its Clint (mL/min/g liver) rat at 24

Entry NS(=O)(=O)Cc1c(Cl)ccc(NC(=O)Nc2cccc(Cl)c2Cl)c1O ; Clint (mL/min/g liver) rat = 1.3

====

Known Clint (mL/min/g liver) rat of a selection of molecules
Test: Glucuronidation in rat hepatic microsomes with UDPGA
Conditions: Table 1 diphenylureas; rat hepatic microsomes ca. 0.5 mg/mL protein, 0.5 uM compound, UDPGA 4 mM, pH 7.4, 37° C.

The reported Clint (mL/min/g liver) rat of the molecule CN(C)S(=O)(=O)c1c(Cl)ccc(NC(=O)Nc2cccc(Cl)c2Cl)c1O [Table 1 Entry 3] was <0.6 mL/min/g liver

Field Clint (mL/min/g liver) rat (entry COCCNS(=O)(=O)c1c(Cl)ccc(NC(=O)Nc2cccc(Cl)c2Cl)c1O [Table 1 Entry 7] ) reads <0.6 mL/min/g liver

The molecule listed as CN(C)S(=O)(=O)c1c(Cl)ccc(NC(=O)Nc2ccccc2Br)c1O [Table 1 Entry 4] has a reported Clint (mL/min/g liver) rat of <0.6 mL/min/g liver
